EXPERIMENT NOTES: self-splicing fitness, log relative to wild type (ln ratio); higher = more splicing; Tetrahymena group I intron in knt gene, E. coli kanamycin selection, DiMSum; sequences stand for … in CUCUCU…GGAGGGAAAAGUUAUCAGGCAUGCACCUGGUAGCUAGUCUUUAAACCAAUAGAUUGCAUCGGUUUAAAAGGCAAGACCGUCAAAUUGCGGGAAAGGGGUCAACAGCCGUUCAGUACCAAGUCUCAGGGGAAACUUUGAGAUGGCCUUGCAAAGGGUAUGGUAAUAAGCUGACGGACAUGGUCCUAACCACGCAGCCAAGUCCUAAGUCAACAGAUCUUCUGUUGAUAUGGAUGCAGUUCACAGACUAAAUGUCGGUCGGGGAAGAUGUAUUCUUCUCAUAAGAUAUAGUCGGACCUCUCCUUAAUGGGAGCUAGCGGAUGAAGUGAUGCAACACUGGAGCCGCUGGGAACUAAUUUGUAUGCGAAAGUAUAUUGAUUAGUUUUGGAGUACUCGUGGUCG;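 note: selection with 25 µg/mL kanamycin versus none on LB agar overnight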
MEASUREMENT CONTEXT: 30 °C

ENTRY SEQUENCE: GUGGAGCAAUAUUACGCGAA
self-splicing fitness (ln): -3

ENTRY SEQUENCE: CUGUAGCAAUAUUACGACCA
self-splicing fitness (ln): -1.45

ENTRY SEQUENCE: AACUAGCAAUAUUACGCGGG
self-splicing fitness (ln): -2.78

ENTRY SEQUENCE: UGUCAGCAAUAUUACGCCCG
self-splicing fitness (ln): -0.222

ENTRY SEQUENCE: UGUGAGCAAUAUUACGAACU
self-splicing fitness (ln): -0.733

ENTRY SEQUENCE: GUGGAGCAAUAUUACGAACA
self-splicing fitness (ln): -2.19

ENTRY SEQUENCE: GCCGAGCAAUAUUACGAUCA
self-splicing fitness (ln): -1.91

ENTRY SEQUENCE: AUUUAGCAAUAUUACGACGG
self-splicing fitness (ln): -1.79

ENTRY SEQUENCE: GUCAAGCAAUAUUACGGGGG
self-splicing fitness (ln): -4.02

ENTRY SEQUENCE: UAGAAGCAAUAUUACGGUAU
self-splicing fitness (ln): -3.08

ENTRY SEQUENCE: GACUAGCAAUAUUACGUGAC
self-splicing fitness (ln): -1.34

ENTRY SEQUENCE: UGCCAGCAAUAUUACGUUAG
self-splicing fitness (ln): -2.26

ENTRY SEQUENCE: AACUAGCAAUAUUACGUAAG
self-splicing fitness (ln): -1.22

ENTRY SEQUENCE: GCCGAGCAAUAUUACGGCGC
self-splicing fitness (ln): -1.48

ENTRY SEQUENCE: GCUCAGCAAUAUUACGCAGU
self-splicing fitness (ln): -2.41

ENTRY SEQUENCE: AGCAAGCAAUAUUACGUCUC
self-splicing fitness (ln): -2.61

ENTRY SEQUENCE: CCAGAGCAAUAUUACGUAGU
self-splicing fitness (ln): -4.61

ENTRY SEQUENCE: CACAAGCAAUAUUACGACCC
self-splicing fitness (ln): -2.15

ENTRY SEQUENCE: UUUAAGCAAUAUUACGUUUC
self-splicing fitness (ln): -3.96

ENTRY SEQUENCE: CACGAGCAAUAUUACGGUUG
self-splicing fitness (ln): -3.57

ENTRY SEQUENCE: UUGAAGCAAUAUUACGGACA
self-splicing fitness (ln): 0.534

ENTRY SEQUENCE: CGAAAGCAAUAUUACGGUGG
self-splicing fitness (ln): -0.576

ENTRY SEQUENCE: UGACAGCAAUAUUACGACAG
self-splicing fitness (ln): -0.934

ENTRY SEQUENCE: AGCUAGCAAUAUUACGUCCU
self-splicing fitness (ln): -0.19

ENTRY SEQUENCE: UCCCAGCAAUAUUACGGAUU
self-splicing fitness (ln): -2.66

ENTRY SEQUENCE: GGCUAGCAAUAUUACGCCGG
self-splicing fitness (ln): -2.34

ENTRY SEQUENCE: AGGCAGCAAUAUUACGAUAG
self-splicing fitness (ln): -3.08

ENTRY SEQUENCE: AACAAGCAAUAUUACGCGGG
self-splicing fitness (ln): -3.55

ENTRY SEQUENCE: CCCAAGCAAUAUUACGUAUG
self-splicing fitness (ln): -4.01

ENTRY SEQUENCE: UAGAAGCAAUAUUACGGAUU
self-splicing fitness (ln): -1.57

ENTRY SEQUENCE: UUGCAGCAAUAUUACGAUCG
self-splicing fitness (ln): -1.13

ENTRY SEQUENCE: UGCCAGCAAUAUUACGGCCA
self-splicing fitness (ln): -0.44

ENTRY SEQUENCE: UUGUAGCAAUAUUACGUGCA
self-splicing fitness (ln): -2.4

ENTRY SEQUENCE: AACAAGCAAUAUUACGCACC
self-splicing fitness (ln): -0.717
